Below: compounds with pIC50 recorded for Serine/threonine-protein kinase Chk1 (Homo sapiens) in separate published works.
pIC50: −log10 of the molar value.

Smiles repr | Measured endpoint | Result
O=C(Nc1c[nH]c(=O)c(-c2cc3ccccc3[nH]2)c1)c1cnn(Cc2cccc(Cl)c2)c1 | pIC50 | > 7.00
CN(C)CCOc1cccc2[nH]c(-c3cc(NC(=O)c4cnn(Cc5ccccc5)c4)c[nH]c3=O)cc12 | pIC50 | > 7.00
O=c1c(NCc2ccc(F)c(O)c2)c(Nc2ccc3[nH]cnc3c2)c1=O | pIC50 | > 6.00

Now consider a different compound.
Item C[C@H](Nc1c(Nc2ccc(O)c(-c3ccccn3)c2)c(=O)c1=O)c1cccc(O)c1 was tested on Serine/threonine-protein kinase Chk1 (Homo sapiens); the reported pIC50 is < 6.00

----------
We begin with pIC50 values for Serine/threonine-protein kinase Chk1 (Homo sapiens, UniProt O14757), as collected from the published literature.
pIC50: −log10 of the molar value.

Here's what some known entries look like.
Compound | Result
O=c1c(NCc2ccc3[nH]ccc3c2)c(Nc2ccc3[nH]cnc3c2)c1=O | < 6.00
COc1cccc([C@@H](C)Nc2c(Nc3ccc(O)c(-c4ccccn4)c3)c(=O)c2=O)c1 | < 6.00

Measured pIC50, CNS(=O)(=O)c1cccc(CNc2c(Nc3ccc(O)c(-c4ccccn4)c3)c(=O)c2=O)c1 : > 6.00

Value of pIC50 reported for the compound CC(C)c1ccc(Cn2cc(C(=O)Nc3c[nH]c(=O)c(-c4cc5cc(OCCCN6CCCCC6)ccc5[nH]4)c3)cn2)cc1 is > 7.00

# compound COc1nc(C)ccc1-c1cc(Nc2cncc(O[C@@H]3CCCNC3)n2)[nH]n1 ; its pIC50 = > 9.00

Per the records, this compound ( O=c1c(NCc2cccc(O)c2)c(Nc2ccc3[nH]cnc3c2)c1=O ) has pIC50 equal to > 7.00

Value of measured pIC50 for the entry COCCNC(=O)CC(Nc1c(Nc2ccc3[nH]cnc3c2)c(=O)c1=O)c1cccc(O)c1 (centres unmarked) : < 6.00

Lab note: CN(Cc1ccc2[nH]c(-c3cc(NC(=O)c4cnn(Cc5ccc(F)cc5)c4)c[nH]c3=O)cc2c1)C1CCCCC1 gave pIC50 of > 7.00

----------
pIC50: −log10 of the molar value.
Listing of pIC50 toward Serine/threonine-protein kinase Chk1 (Homo sapiens), each taken from a published source.

Completed entries (count: 5):
Compound | pIC50
COc1cccc(OC[C@H]2CCCNC2)c1-c1cc(Nc2cnc(C#N)c(C)n2)n[nH]1 | 9.52
COc1c(F)ccc(OCCCN)c1-c1cc(Nc2cnc(C#N)cn2)n[nH]1 | ≥ 9.00
CN1CCN(Cc2cccc3[nH]c(-c4cc(NC(=O)c5cnn(Cc6ccccc6)c5)c[nH]c4=O)cc23)CC1 | > 7.00
Cc1nc2cc(Nc3c(NCc4cccc(O)c4)c(=O)c3=O)ccc2s1 | < 6.00
O=C(Nc1c[nH]c(=O)c(-c2cc3cc(CN4CCC(F)(F)CC4)ccc3[nH]2)c1)c1cnn(Cc2ccccc2)c1 | > 7.00

Please turn your attention to the following entry.
Tested on Serine/threonine-protein kinase Chk1 (Homo sapiens): CCCCc1c(Nc2c(NCc3cccc(O)c3)c(=O)c2=O)ccc2[nH]cnc12 . Observed pIC50: < 6.00

----------
// merged dataset of IC50 values, system = Serine/threonine-protein kinase Chk1 (Homo sapiens), multiple refs

Reference set (2 entries):
Compound | Measured endpoint | Result
NC(=O)c1cnc(N[C@H]2CCCNC2)c2nc(-c3ccc(Cl)cc3)cn12 | IC50 | 0.039 µM
CCOc1cccc(CNc2c(Nc3ccc4[nH]cnc4c3)c(=O)c2=O)c1 | IC50 | > 1 µM

Noted for COc1cc(CNc2c(Nc3ccc4[nH]cnc4c3)c(=O)c2=O)ccc1F : its IC50 reads > 1 µM

// recorded IC50 for COc1cccc(CNc2c(Nc3ccc4ncsc4c3)c(=O)c2=O)c1 : > 1 µM

Quick note, IC50 for O=CNc1cccc(CNc2c(Nc3ccc4[nH]cnc4c3)c(=O)c2=O)c1 landed at > 1 µM

The value of IC50 measured for the compound CCN(CC)CCn1cnc2ccc(Nc3c(N[C@H](C)c4cccc(O)c4)c(=O)c3=O)cc21 turned out to be > 1 µM

Measured IC50, CCOC(=O)N=S(C)(=O)c1ccc2cc1NCCCCNc1nc(ncc1Br)N2 (racemic) : 4.64 µM

# IC50 of CCc1cccc(Cn2cc(C(=O)Nc3c[nH]c(=O)c(-c4cc5cc(OCCCN(C)C)ccc5[nH]4)c3)cn2)c1 = < 0.1 µM

----------
pIC50: −log10 of the molar value.
Endpoint summary: pIC50, system: Serine/threonine-protein kinase Chk1 (Homo sapiens), multiple sources combined.

Here are 3 molecules together with their reported answers.
Smiles repr | Study system | pIC50
CCn1c2ccccc2c2cc(Nc3c(NCc4cccc(O)c4)c(=O)c3=O)ccc21 | Serine/threonine-protein kinase Chk1 (Homo sapiens) | < 6.00
N#Cc1cccc(-c2cn3c(C#N)cnc(N[C@H]4CCCNC4)c3n2)c1 | Serine/threonine-protein kinase Chk1 (Homo sapiens) | 6.06
COc1cccc([C@H](C)Nc2c(Nc3ccc(O)c(-c4ccccn4)c3)c(=O)c2=O)c1 | Serine/threonine-protein kinase Chk1 (Homo sapiens) | < 6.00

# pIC50 of O=C(Nc1c[nH]c(=O)c(-c2cc3cc(OCC4(CN5CCCC5)CC4)ccc3[nH]2)c1)c1cnn(Cc2ccccc2)c1 = > 7.00

----------
Recorded IC50 for compounds tested on Serine/threonine-protein kinase Chk1 (Homo sapiens), drawn from a number of studies.

Smiles repr | IC50
C[C@@H]1CN(Cc2ccc3[nH]c(-c4cc(NC(=O)c5cnn(Cc6ccc(F)cc6)c5)c[nH]c4=O)cc3c2)C[C@H](C)O1 | < 100 nM

Reading of IC50 for O=C(Nc1cnn(Cc2ccc(F)c(F)c2)c1)c1c[nH]c(=O)c(-c2cc3cc(CN4CCCC4)ccc3[nH]2)c1 with Serine/threonine-protein kinase Chk1 (Homo sapiens): < 100 nM

Fill in: Serine/threonine-protein kinase Chk1 (Homo sapiens) IC50 for COc1cc(F)cc(OC[C@H]2CCNC2)c1-c1cc(Nc2cnc(C#N)cn2)n[nH]1 = 0.2 nM

Given the compound O=c1c(NCc2cccc(O)c2)c(Nc2ccc3[nH]ccc3c2)c1=O and test system Serine/threonine-protein kinase Chk1 (Homo sapiens), the measured IC50 is > 1000 nM

----------
# IC50 against Serine/threonine-protein kinase Chk1 (Homo sapiens, UniProt O14757), merged from multiple literature sources

Take a look at these entries with their results.
Molecule | Study system | IC50
C[C@@H](Nc1c(Nc2ccc(O)c(-c3ccccn3)c2)c(=O)c1=O)c1ccccc1 | Serine/threonine-protein kinase Chk1 (Homo sapiens, UniProt O14757) | > 1000 nM
CN(CCO)Cc1ccc2[nH]c(-c3cc(C(=O)Nc4cnn(Cc5ccc(F)c(F)c5)c4)c[nH]c3=O)cc2c1 | Serine/threonine-protein kinase Chk1 (Homo sapiens, UniProt O14757) | < 100 nM
O=c1c(NCc2cccc(O)c2)c(Nc2ccc(O)c(-c3ccncc3)c2)c1=O | Serine/threonine-protein kinase Chk1 (Homo sapiens, UniProt O14757) | < 1000 nM

Fill in: Serine/threonine-protein kinase Chk1 (Homo sapiens, UniProt O14757) IC50 for O=c1c(NCc2cccc(C(F)(F)F)c2)c(Nc2ccc3[nH]cnc3c2)c1=O = > 1000 nM

The molecule O=c1c(NCc2cccc(Cl)c2)c(Nc2ccc3[nH]cnc3c2)c1=O , tested on Serine/threonine-protein kinase Chk1 (Homo sapiens, UniProt O14757), showed IC50 of > 1000 nM

Noted IC50 for O=c1c(NCc2ccccc2OC2CCNCC2)c(Nc2ccc3[nH]cnc3c2)c1=O , tested on Serine/threonine-protein kinase Chk1 (Homo sapiens, UniProt O14757): > 1000 nM

Tested system Serine/threonine-protein kinase Chk1 (Homo sapiens, UniProt O14757); IC50 recorded for COc1nc(C)ccc1-c1cc(Nc2cnc3ccn(C4CCNCC4)c3n2)n[nH]1 was < 1 nM

Query Cc1ccc(Cn2cc(C(=O)Nc3c[nH]c(=O)c(-c4cc5cc(OCCN6CCOCC6)ccc5[nH]4)c3)cn2)cc1 on Serine/threonine-protein kinase Chk1 (Homo sapiens, UniProt O14757); IC50 returned: < 100 nM

Tested system Serine/threonine-protein kinase Chk1 (Homo sapiens, UniProt O14757); IC50 recorded for O=C(Nc1c[nH]c(=O)c(-c2cc3ccccc3[nH]2)c1)c1cnn(Cc2ccc(F)nc2)c1 was < 100 nM

// molecule CC1CN(Cc2ccc3[nH]c(-c4cc(NC(=O)c5cnn(Cc6ccc(C(C)C)cc6)c5)c[nH]c4=O)cc3c2)CC(C)O1 (centres unmarked) , assay Serine/threonine-protein kinase Chk1 (Homo sapiens, UniProt O14757), IC50 value: < 100 nM

Item CC(=O)NCCOc1cccc(CNc2c(Nc3ccc4[nH]cnc4c3)c(=O)c2=O)c1 ; assay system Serine/threonine-protein kinase Chk1 (Homo sapiens, UniProt O14757); IC50 reported as > 1000 nM

Hey, Serine/threonine-protein kinase Chk1 (Homo sapiens, UniProt O14757) data for CC(c1ccccc1)n1cc(C(=O)Nc2c[nH]c(=O)c(-c3cc4cc(CN5CCCCC5)ccc4[nH]3)c2)cn1 (centres unmarked) : IC50 came out at < 100 nM

Entry N#Cc1cnc(Nc2cc(-c3c(F)cccc3OC[C@H]3CCCNC3)[nH]n2)cn1 , Serine/threonine-protein kinase Chk1 (Homo sapiens, UniProt O14757) data, IC50 value: 0.59 nM
